conditions: African green monkey, uninfected COS7 cells
Entries and their CC50 at 7 days values follow.
Only the number, expressed in µM, is required.

Worked examples, 2 compounds total:
CCCCCCCCCCCCCCCCCCOCCOP(=O)(COCCn1cnc2c(N)ncnc21)OCc1ccccc1 (stereo not drawn): 10.6
CCCCCCCCCCCCCCCCCCOCCOP(=O)(CO[C@H](CO)Cn1ccc(N)nc1=O)OCc1ccccc1 (stereo partly drawn): 12.8

// next entry
Prompt: Return reported CC50 at 7 days; argument: CCCCCCCCCCCCCCCCCCOCCOP(=O)(CO[C@H](CO)Cn1cnc2c(N)ncnc21)OCc1ccccc1 (stereo partly drawn)
Completion: 10.2

###

Entries and their pEC50 values follow.
system: BK virus (Gardner strain); test: Antiviral effect in HFF cells infected with BK virus (Gardner strain), qPCR; details: Betapolyomavirus hominis, HFF, 336 h
pEC50: −log10 of the molar value.

CCCCCCCCCCCCCCCCCCOCCOP(=O)(CO[C@H](CO)Cn1ccc(N)nc1=O)OCc1ccccc1 (stereo partly shown): > 7.52
CCCCCCCCCCCCCCCCCCOCCOP(=O)(COCCn1cnc2c(=O)[nH]c(N)nc21)OCc1ccccc1 (racemic): > 7.52
CCCCCCCCCCCCCCCCCCOCCOP(=O)(CO[C@H](CO)Cn1cnc2c(N)ncnc21)OCc1ccccc1 (stereo partly shown): > 7.52

// next entry
Prompt: Return reported pEC50; argument: CCCCCCCCCCCCCCCCCCOCCOP(=O)(COCCn1cnc2c(N)ncnc21)OCc1ccccc1 (stereo not shown)
Completion: > 7.52

###

system: 2.2.15 cells; test: Cytotoxicity in 2.2.15 cells by neutral red uptake; settings: 2.2.15 cells, neutral red uptake
measured_parameter: CC50
I'd appreciate it if you wrote the number followed by its unit.

Prompt: Return reported CC50; argument: CCCCCCCCCCCCCCCCCCOCCOP(=O)(CO[C@H](C)Cn1cnc2c(N)ncnc21)Oc1ccccc1 (stereo partly shown) [Compound 92]
Completion: 68 µM

###

assay: Cytotoxicity in HFF cells in parallel to HSV-1 assay; settings: human
measured_parameter: CC50 at 3 days

Prompt: Return reported CC50 at 3 days; argument: CCCCCCCCCCCCCCCCCCOCCOP(=O)(COCCn1cnc2c(=O)[nH]c(N)nc21)OCc1ccccc1 (racemic) [Compound 1]
Completion: > 100 µM

###

test system: human foreskin fibroblast (HFF) cells; settings: uninfected HFF cells, […]
measured_parameter: CC50 (µM)
Only the number, expressed in µM, is required.

CCCCCCCCCCCCCCCCCCOC[C@H](COP(=O)(CO[C@H](CO)Cn1ccc(N)nc1=O)OCc1ccccc1)OCc1ccccc1 (some centres unmarked): 13.3

// next entry
Prompt: Param readout = CC50; param system = human foreskin fibroblast (HFF) cells; param query = CCCCCCCCCCCCCCCCCCOC[C@H](COP(=O)(CO[C@H](CO)Cn1cnc2c(N)ncnc21)OCc1ccccc1)OCc1ccccc1 (some centres unmarked) ; response: value
Completion: 19.6

###

conditions: human
measured_parameter: CC50 at 14 days (µM)
Only the number, expressed in µM, is required.

Prompt: Return reported CC50 at 14 days; argument: CCCCCCCCCCCCCCCCCCOCCOP(=O)(CO[C@H](CO)Cn1cnc2c(N)ncnc21)OCc1ccccc1 (stereo partly shown) [Compound 218]
Completion: 2.8

Prompt: Return reported CC50 at 14 days; argument: CCCCCCCCCCCCCCCCCCOCCOP(=O)(COCCn1cnc2c(N)ncnc21)OCc1ccccc1 (stereo not shown) [Compound 2]
Completion: 7.14

Prompt: Return reported CC50 at 14 days; argument: CCCCCCCCCCCCCCCCCCOCCOP(=O)(COCCn1cnc2c(=O)[nH]c(N)nc21)OCc1ccccc1 (racemic) [Compound 1]
Completion: 3.06

Prompt: Return reported CC50 at 14 days; argument: CCCCCCCCCCCCCCCCCCOCCOP(=O)(CO[C@H](CO)Cn1ccc(N)nc1=O)OCc1ccccc1 (stereo partly shown) [Compound 219]
Completion: 6.54

Data provenance is patent US10076533B2.
